- measurementTarget: T1, recombinant human TIGIT (human, UniProt Q495A1 22-141, limits assumed)
- T1 construct: recombinant human TIGIT used in Carterra SPR; also called hTIGIT
- T1 sequence (looked up): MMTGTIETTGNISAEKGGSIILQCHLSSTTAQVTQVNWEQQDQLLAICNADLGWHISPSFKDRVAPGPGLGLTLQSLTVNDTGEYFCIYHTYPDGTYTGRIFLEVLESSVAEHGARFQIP
- assayName: SPR Carterra, average
measurementType: log10 kon (log10 of the value in M⁻¹ s⁻¹)
All values: base-10 log of kon in M⁻¹ s⁻¹.

Previously resolved entries follow.
TIGIT-SC206 (Fc fusion, VHH-Fc fusion in assay) VHH: EVQLVESGGGLVQPGGSLRLSCAASGFLFDSYVMGWFRQAPGKEREFVAAIWRSGTLKAYADSVKGRFTISADNSKNTAYLQMNGLKPEDTAVYYCAGVGTDYGDYLFNYWGQGTLVTVSS; 6.00
TIGIT-SC79 (Fc fusion, VHH-Fc fusion in assay) VHH: EVQLVESGGGLVQPGGSLRLSCAASGSILSINTMGWFRQAPGKEREFVAAITSAGGTTYYADSVKGRFTISADNSKNTAYLQMNSLKPEDTAVYYCARWHYDILTGYYWLDSWGQGTLVTVSS; 4.90

Entry under test: TIGIT-SC3 (Fc fusion, VHH-Fc fusion in assay) VHH: EVQLVESGGGLVQPGGSLRLSCAASGTFQRINAMGWFRQAPGKEREFVSTINWSGSNTYYADSVKGRFTISADNSKNTAYLQMNSLKPEDTAVYYCASSYSSSSGLGDIWGQGTLVTVSS . Its log10 kon was 6.67

Entry under test: TIGIT-SC129 (Fc fusion, VHH-Fc fusion in assay) VHH: EVQLVESGGGLVQPGGSLRLSCAASGPTLGSYVMGWFRQAPGKEREFVAAISGSGDDTYYADSVKGRFTISADNSKNTAYLQMNSLKPEDTAVYYCARWREFPGYYFAIDVWGQGTLVTVSS . Its log10 kon was 4.64

Entry under test: TIGIT-SC18 (Fc fusion, VHH-Fc fusion in assay) VHH: EVQLVESGGGLVQPGGSLRLSCAASGFSLDYYAMGWFRQAPGKEREVVAIIDTNGDNTLYADSVKGRFTISADNSKNTAYLQMNSLKPEDTAVYYCARGRGYGDYVGAYWGQGTLVTVSS . Its log10 kon was 5.15

Entry under test: TIGIT-SC100 (Fc fusion, VHH-Fc fusion in assay) VHH: EVQLVESGGGLVQPGGSLRLSCAASGRTLSDRAMGWFRQAPGKEREFVAAITDNGGSTYYADSVKGRFTISADNSKNTAYLQMNSLKPEDTAVYYCARWYSSSGDYYYMDVWGQGTLVTVSS . Its log10 kon was 5.09

Entry under test: TIGIT-SC88 (Fc fusion, VHH-Fc fusion in assay) VHH: EVQLVESGGGLVQPGGSLRLSCAASGFTFSSDWMGWFRQAPGKEREFVAAINRSGHSTSYADSVKGRFTISADNSKNTAYLQMNSLKPEDTAVYYCARWGGVTFGGVYPLEYWGQGTLVTVSS . Its log10 kon was 4.97
